Entry source: patent US7109364B2

// reported K562 IC90 for each item listed
System: K562 human leukemia cell line
Experiment summary: In vitro anti-cancer efficacy, K562, trypan blue dye exclusion, 48 hours
Type: cell-based
Condition info: Table 1; 48 hours
Note: a bare number is incomplete; add the unit.

# count of solved cases: 5
Molecule	K562 IC90
CC(C)CCCCCCCCCCC(=O)c1ccc(O)cc1O [Compound 18]	8.90 µg/mL
CC(C)CCCCCCCCCCCCc1ccc(O)cc1O [Compound 21]	5.25 µg/mL
CC(C)CCCCCCCCCCCc1nnc(S)s1 [Compound 30]	8.75 µg/mL
CC(C)CCCCCCCCCCCCc1ccc(O)c(O)c1O [Compound 24]	19.2 µg/mL
CC(C)(C)CCCCCCCCCCCCc1ccc(O)cc1O [Compound 22]	5.36 µg/mL

Query: Which K562 IC90 is reported for this molecule? CCC(C)CCCCCCCCCCCc1ccc(O)cc1O (stereo not shown) [Compound 23]
Reply: 14.6 µg/mL

Query: CC(C)CCCCCCCCCCCC(=O)Nc1ccc(S(=O)(=O)O)cc1 [Compound 2] , same question.
Reply: 37.8 µg/mL
